These data points were gathered from patent US20230242499A1.

# Maximum emission wavelength (nm) annotations
- Assay Explanation: Test Example 3: maximum emission wavelength by spectrofluorometer
- Assay type: physicochemical
- Assay Context: after several hours under the conditions of Test Example 1; spectrofluorometer F-7000
Test Readout: Maximum emission wavelength (nm)

{"Molecule": "COC1(c2ccc(-c3ccc(C(=O)O)cc3)c(OP(=O)(O)O)c2)OOC12C1CC3CC2CC(Cl)(C3)C1 (stereo not shown) [Example 4]", "Test Readout": "Maximum emission wavelength (nm)", "Units": "nm", "Recorded Result": 493}
{"Molecule": "COC1(c2ccc(C#Cc3ccc(C(=O)O)cc3)c(OP(=O)(O)O)c2)OOC12C1CC3CC2CC(Cl)(C3)C1 (stereo not shown) [Example 1]", "Test Readout": "Maximum emission wavelength (nm)", "Units": "nm", "Recorded Result": 498}
{"Molecule": "COC1(c2ccc(C#CC(=O)O)c(OP(=O)(O)O)c2)OOC12C1CC3CC2CC(Cl)(C3)C1 (stereo not shown) [Example 3]", "Test Readout": "Maximum emission wavelength (nm)", "Units": "nm", "Recorded Result": 475}
{"Molecule": "C#Cc1ccc(C2(OC)OOC23C2CC4CC3CC(Cl)(C4)C2)cc1OP(=O)(O)O (stereo not shown) [Example 2]", "Test Readout": "Maximum emission wavelength (nm)", "Units": "nm", "Recorded Result": 468}
